# credit: ChEMBL document CHEMBL4765395

assay: Cytotoxicity against human HepG2.2.15 cells assessed as reduction in cell viability incubated for 4 days prior to compound washout followed by compound addition and measured after 4 days by […]; format: cell-based, HepG2 2.2.15; settings: time 8 day
reported_property: CC50 at 192 h (µM)
Value expressed in µM; do not type the unit.

**Q:** CC50 at 192 h for CC(C)Cc1sc(-c2nccs2)nc1C(=O)NCc1ccc(F)cc1 ?
**A:** 50.4

====

assay: Cytotoxicity against human HepG2.2.15 cells assessed as reduction in cell viability incubated for 4 days prior to compound washout followed by compound addition and measured after 4 days by CCK8 assay; assay type: cell-based, HepG2 2.2.15; conditions: time 8 day
// reported CC50 at 192 h for each item listed
Value expressed in µM; do not type the unit.

record_smiles	CC50 at 192 h [µM]
CC(C)Cc1sc(-c2nccs2)nc1C(=O)Nc1ccc(F)cc1	80.8
CC(C)Cc1sc(-c2nccs2)nc1C(=O)NCc1ccc(F)cc1F	45.4

Okay, next one:
**Q:** CC50 at 192 h for CC(C)Cc1sc(-c2nccs2)nc1C(=O)NCc1ccc(F)cc1 ?
**A:** 59.2
